Tested on: HOP-62 NSCLC
Assay info: NCI tumour cell line growth inhibition, 48 h
Readout kind: TGI

1. Oc1cccc(Cn2c(-c3cccc(O)c3O)nc3ccccc32)c1O ... 38.7 µM
2. CCCCCCCC(=O)OCC1OC(n2cc(F)c(=O)[nH]c2=O)C(NC(=O)OCc2ccccc2)C(OC(=O)CCCCCCC)C1O (centres undefined) ... > 100 µM
3. CC1(C)N=C(/C=N/O)C(C)(C)N1O ... > 100 µM
4. COc1cccc2c1C(=O)c1c(O)c3c(c(O)c1C2=O)C[C@@](O)(/C(C)=N/NC(=O)c1ccccc1)C[C@@H]3OC1CC(N)C(O)C(C)O1 (some centres undefined) ... 0.715 µM
5. Cn1c2ccccc2n2c(=O)c3cccnc3c(C#N)c12 ... > 100 µM
6. O=C(COc1ccc(Cl)cc1)N1N=C(c2ccc([N+](=O)[O-])o2)CC1(O)c1ccccc1 (centres undefined) ... 35.8 µM
7. O=C(N/N=C\c1ccc([N+](=O)[O-])cc1)c1ccccc1Nc1ccccc1C(=O)N/N=C/c1ccc([N+](=O)[O-])cc1 ... > 100 µM
8. CN[C@@H](C)[C@H](OP(=O)(O)OC1[C@@H](O)[C@H](O)C(O)[C@H](O)[C@@H]1O)c1ccccc1 (some centres undefined) ... > 100 µM
9. CCOC(=O)COc1c(OC)cc(C2C3=C(COC3=O)Oc3cc4c(cc32)OCO4)cc1OC (centres undefined) ... > 100 µM

###

System: SF-268 CNS
Assay info: NCI tumour cell line growth inhibition, 48 h
# TGI per entry
Readout kind: TGI

1. COc1cc2ccc(/C(C)=N/OC(C)=O)cc2cc1OC ... > 100 µM
2. OCCN=C1c2ccccc2C2C(c3ccccc31)C1c3ccccc3C(=NCCO)c3ccccc3C21 (stereo unspecified) ... > 100 µM
3. COc1cc2c(=O)n(CCCn3ccnc3)c3c4cc5c(cc4ccc3c2cc1OC)OCO5 ... 14.9 µM
4. Oc1cccc(Cn2c(-c3cccc(O)c3O)nc3ccccc32)c1O ... 28.7 µM
5. N=C1C(c2nc3ccccc3s2)=C(O)CN1c1ccc(Cl)cc1Cl ... > 100 µM
6. COc1ccc(CCc2ccc(O)c(C(=O)O)c2)cc1OC ... > 100 µM
7. CC1(C)C(=O)C2(OS(=O)(=O)C(F)(F)F)CCC1C2 (stereo unspecified) ... > 100 µM
8. O=C(/C=C\Nc1ccccc1O)C(Cl)(Cl)Cl ... > 100 µM
9. O=C(O)c1cc(O)c2c(c1)Cc1cccc(O)c1C2=O ... 56.6 µM
10. O=C1OC[C@@H]2Cc3c([nH]c4ccccc34)[C@@H](c3cc(O)c(O)c(O)c3)N12 ... > 100 µM
11. O=C1c2cccc3cc([N+](=O)[O-])cc(c23)C(=O)N1CCN1CCCC1 ... 4.27 µM

###

# TGI per entry
System: OVCAR-3 ovarian
Assay info: NCI tumour cell line growth inhibition, 48 h
Where a SMILES comes first, the peptide text is derived from it. [ ]: non-standard residue; d: D form. The star is where a group is joined. ξ: configuration not given here. Propanoyl(3-(4-MeO-Ph)) = COc1ccc(CCC(=O)*)cc1; Thr(3ξ) = CC(O)[C@H](N)C(=O)O; dNMeL = CN[C@H](CC(C)C)C(=O)O; OBn = c1ccc(CO*)cc1; ξLac = CC(O)C(=O)O
Readout kind: TGI

1. O=C1c2cccc3cc([N+](=O)[O-])cc(c23)C(=O)N1CCN1CCCC1 ... 5.71 µM
2. O=C1C(Cl)=C(Nc2cccc(O)c2)C(=O)N1c1cccc(Cl)c1 ... 64.1 µM
3. O=S(=O)(NCCCNc1cc(-c2cn(-c3ccccc3)nc2-c2cccc(O)c2)ccn1)c1cccc2ccccc12 ... > 100 µM
4. COc1cccc(-c2nc(-c3ccc(NC(=O)c4ccccc4)cc3)[nH]c2-c2ccnc(Br)c2)c1 ... > 100 µM
5. CC(=O)O[C@H]1CCC2[C@@H]3CCC4Nc5c(cnn5-c5ccccc5)C[C@]4(C)C3CC[C@@]21C (some centres not stated) ... 46.2 µM
6. CCN(CC)C(=O)CNC(=O)OC(C)(C)C ... > 100 µM
7. CC(C)(C)N1CC(OC(N)=O)C1 ... > 100 µM
8. CCC(O)(c1ccc(OC)cc1)C(c1ccc(OCc2ccccc2)cc1)c1ccc(OCc2ccccc2)cc1 (configuration not stated) ... > 100 µM
9. CN(C)CCCN=c1cc2c(=O)n(CCCN(C)C)c(=O)c3c(NCCCN(C)C)cc4c(O)n(CCCN(C)C)c(=O)c1c4c3-2 ... 7.88 µM
10. CCOC(=O)C(C)(C)/C=C\C(Cl)=C(Cl)Cl ... > 100 µM
11. Cc1ccc(C(=O)CCC2C(=O)CC(C)(C)CC2=O)cc1 ... > 100 µM
12. Cc1ccc(/C=N/Nc2nncc3ccccc23)s1 ... > 100 µM
13. COc1cc(C)[nH]c(=O)c1CN1CCc2c(Cl)cc([C@H](OC)C3COC3)c(Cl)c2C1=O ... > 100 µM
14. CC(=O)O[C@H]1CC[C@@]2(C)C(=CC[C@@H]3[C@@H]2CC[C@]2(C)c4c(cc(C#N)c(=N)n4C(C)=O)C[C@@H]32)C1 ... 34.4 µM
15. Cc1ccc(/C=N/NC2=NCCN2)s1 ... > 100 µM
16. COc1ccc(CCC(=O)OC(C)[C@H](NC(=O)[C@@H](CC(C)C)N(C)C(=O)[C@@H]2CCCN2C(=O)C(C)O)C(=O)OCc2ccccc2)cc1 (some centres not stated) (H-[ξLac]P[dNMeL][Thr(3ξ)](Propanoyl(3-(4-MeO-Ph)))-OBn) ... 73.4 µM
17. CC1(C)N=C(/C=N/O)C(C)(C)N1O ... > 100 µM

###

Test system: OVCAR-5 ovarian
Assay info: NCI tumour cell line growth inhibition, 48 h
Readout kind: TGI (µM)

1. Oc1cccc(Cn2c(-c3cccc(O)c3O)nc3ccccc32)c1O ... 48.1
2. NC(=O)c1cc(Cl)ccc1NC(=O)c1ccccc1-c1ccccc1 ... 79.1
3. CC(=O)O[C@H]1CC[C@@]2(C)C(=CC[C@@H]3[C@@H]2CC[C@]2(C)c4c(cc(C#N)c(=N)n4C(C)=O)C[C@@H]32)C1 ... 74.7
4. CC1OC(O[C@H]2/C=C/C=C/C=C/C=C/C=C/C=C/C=C/[C@H](C)[C@@H](O)[C@@H](C)[C@H](C)OC(=O)C[C@H](O)C[C@H](O)CC[C@@H](O)[C@H](O)C[C@H](O)C[C@]3(O)C[C@H](O)[C@@H](C(=O)O)[C@H](C2)O3)C(O)C(N)C1O (some centres not stated) ... 62.3

###

Tested on: NCI/ADR-RES ovarian
Assay info: NCI tumour cell line growth inhibition, 48 h
Readout kind: TGI

1) COc1cc2c3c(n(Cc4ccccc4)c(=O)c2cc1OC)-c1ccccc1C3=O ... > 100 µM
2) O[C@H]1[C@H](O)[C@H](O)CN2CCC[C@@H](O)[C@H]12 ... > 100 µM
3) COc1cc(/C=C2\CN(S(=O)(=O)c3ccc(C)cc3)C/C(=C\c3cc(CN4CCCCC4)c(O)c(OC)c3)C2=O)cc(CN2CCCCC2)c1O ... 3.77 µM
4) COc1cc(/C=C/C(=O)N[C@@H]2C(=O)N3[C@@H]2SC(C)(C)[C@@H]3C(=O)O)cc(OC)c1OC ... > 100 µM
5) CCN(CC)CCSc1nc2c(c(=N)n1-c1ccccc1)c(=S)n(-c1ccccc1)c(=S)n2-c1ccccc1 ... 52.5 µM
6) O=C(O[C@H]1CN[C@H](C#Cc2cc3ncnc(Nc4ccc(OCc5cccc(F)c5)c(Cl)c4)c3s2)C1)N1CCOCC1 ... > 25 µM
7) CN(C)c1ccc2cc(-c3cc4c(oc3=O)-c3ccccc3OC4O)c(=O)oc2c1 (stereo unspecified) ... 17.1 µM
8) O=C1OC(C2OC(=O)c3cc(O)c(O)c(O)c3-c3c(O)c(O)c4oc(=O)c5c(c(O)c(O)c6oc(=O)c3c4c65)-c3c(cc(O)c(O)c3O)C(=O)OCC2O)C2OC(=O)c3c(c(O)c(O)c(O)c3[C@H]2O)-c2c1cc(O)c(O)c2O (stereo partly specified) ... 73.5 µM
9) CN[C@@H](C)[C@H](OP(=O)(O)OC1[C@@H](O)[C@H](O)C(O)[C@H](O)[C@@H]1O)c1ccccc1 (stereo partly specified) ... > 100 µM
10) COc1ccccc1N1CCN(C(=O)c2ccc(NS(=O)(=O)c3cccc4cccnc34)cc2)CC1 ... > 100 µM
11) O=C(/C=C\Nc1ccccc1O)C(Cl)(Cl)Cl ... > 100 µM
12) COC(=O)c1ccc(CCc2cc(O)c(Br)cc2O)cc1 ... 43.2 µM
13) CSc1nc(O)c(/C=C2\C=Nc3ccccc32)[nH]1 ... > 100 µM
14) O=C1/C(=C/c2ccccc2)CN(CCC(=O)N2C/C(=C\c3ccccc3)C(=O)/C(=C/c3ccccc3)C2)C/C1=C\c1ccccc1 ... > 76 µM
15) Cc1ccc(S(=O)(=O)/N=C(\[O-])C2=C(c3ccccc3)NN(C)c3nc4cccc[n+]4nc32)cc1 ... > 100 µM
16) CC(=O)O[C@H]1C(=O)[C@@]2(C)[C@H]([C@H](OC(=O)c3ccccc3)[C@]3(O)C[C@H](OC(=O)[C@H](O)[C@@H](NC(=O)CC(C)C)c4ccccc4)C(C)=C1C3(C)C)[C@]1(OC(C)=O)CO[C@@H]1C[C@@H]2O ... > 10 µM
